As shown below, each of these binders has a reported Fold Increase value.
systemTested: T1, human TrkA receptor on the cell surface (human, UniProt P04629 33-796)
T1 construct: whole, on cells; PC12-hTrkA: high density; also called hTrkA; huTrkA
T1 sequence (P04629 33-796): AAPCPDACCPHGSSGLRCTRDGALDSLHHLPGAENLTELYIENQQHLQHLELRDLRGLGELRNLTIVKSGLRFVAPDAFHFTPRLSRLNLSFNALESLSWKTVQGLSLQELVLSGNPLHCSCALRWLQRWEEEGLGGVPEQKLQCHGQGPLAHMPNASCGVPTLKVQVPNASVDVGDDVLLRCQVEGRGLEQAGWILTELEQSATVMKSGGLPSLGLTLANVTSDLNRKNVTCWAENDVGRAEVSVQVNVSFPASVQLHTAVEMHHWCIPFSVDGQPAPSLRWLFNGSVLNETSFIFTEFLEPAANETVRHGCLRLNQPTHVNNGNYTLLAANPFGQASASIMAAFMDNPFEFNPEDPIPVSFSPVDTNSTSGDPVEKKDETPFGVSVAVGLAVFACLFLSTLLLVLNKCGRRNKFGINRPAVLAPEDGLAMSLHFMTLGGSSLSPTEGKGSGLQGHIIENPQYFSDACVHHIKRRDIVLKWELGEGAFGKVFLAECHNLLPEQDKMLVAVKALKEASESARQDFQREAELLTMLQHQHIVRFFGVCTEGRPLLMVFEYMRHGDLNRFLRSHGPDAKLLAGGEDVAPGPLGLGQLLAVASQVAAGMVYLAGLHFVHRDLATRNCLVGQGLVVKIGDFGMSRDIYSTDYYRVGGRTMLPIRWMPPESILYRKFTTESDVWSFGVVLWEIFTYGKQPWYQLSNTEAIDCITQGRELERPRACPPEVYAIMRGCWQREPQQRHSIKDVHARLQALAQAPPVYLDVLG
assayExplanation: flow cytometry on TF-1 cells, 4 µg/ml
# output: bare number, implied unit fold

// known answers, use as guide
{"columns": ["binder", "Fold Increase (fold)"],
 "data": [
  ["BXhVH3VL7 (antibody, human IgG1, V domains shown, Human IgG1 constant regions (IgG1 expression vectors); COS-7 supernatant; also called hVH3/hVL7) VH: EVQLLESGGGLVQPGGSLRLSCAASGFTFSTYTMSWVRQAPGKRLEWVAYISKGGGSTYYPDTVKGRFTISRDNSKNTLYLQMNSLRAEDTAVYYCARGAMYGNDFFYPMDYWGQGTTVTVSS VL: QIVLTQSPATLSLSPGERATLSCSASSSVSYMHWYQQKPGQSPRLLIYTTSNLASGIPSRFSGSGSGTFYTLTISSLEPEDAADYYCHQWSSYPWTFGGGTKLEIK", 2],
  ["BXhVH5VL7 (antibody, human IgG1, V domains shown, Human IgG1 constant regions (IgG1 expression vectors); COS-7 supernatant; also called hVH5/hVL7) VH: EVKLLESGGGLVQPGGSLRLSCAASGFTFSTYTMSWVRQTPGKRLEWVAYISKGGGSTYYPDTVKGRFTISRDNSKNTLYLQMNSLRAEDTAVYYCARGAMYGNDFFYPMDYWGQGTTVTVSS VL: QIVLTQSPATLSLSPGERATLSCSASSSVSYMHWYQQKPGQSPRLLIYTTSNLASGIPSRFSGSGSGTFYTLTISSLEPEDAADYYCHQWSSYPWTFGGGTKLEIK", 2.5]
]}

Continue with the next binder.
In: Which Fold Increase is reported for this binder? BXhVH5VL6 (antibody, human IgG1, V domains shown, Human IgG1 constant regions (IgG1 expression vectors); COS-7 supernatant; also called hVH5/hVL6) VH: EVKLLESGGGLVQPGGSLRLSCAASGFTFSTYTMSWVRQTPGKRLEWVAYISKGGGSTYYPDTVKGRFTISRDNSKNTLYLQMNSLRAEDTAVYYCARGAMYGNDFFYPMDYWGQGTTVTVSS VL: EIVLTQSPATLSLSPGEEATLSCSASSSVSYMHWYQQKPGQSPRLLIYTTSNLASGIPSRFSGSGSGTFYTLTISSLEPEDAADYYCHQWSSYPWTFGGGTKLEIK
Out: 2.6

From: patent US20110145941A1
